- Tested on: Fibroblast
- MEASUREMENT_DESCRIPTION: Multiplex assay against human fibroblast
- Format: toxicity, cell-based
- MEASUREMENT_PARAMETERS: 12 h, 1 µM, compound concentration 1 uM, replicate 2
The label is 1.0 for Population Fragmented Nuclei (%) below 40% and 0.0 for Population Fragmented Nuclei (%) equal to or exceeding 40%.

>>> print(df.to_string())
                                   molecule  group_label
0  CCn1c(=O)c(-c2ccc(-c3cncs3)cc2Cl)cc2cnc(Nc3ccc(N4CCN(C)CC4)cc3)nc21          1.0
1  COc1ccc(S(=O)(=O)N(CCO)c2ccccc2CN(C)C/C=C/c2ccc(Cl)cc2)cc1.O=P(O)(O)O          0.0

Ask: Population Fragmented Nuclei (%) strictly < 40% for this molecule? CCN1CCN(c2ccc(Nc3cc(N(C)C(=O)Nc4c(Cl)c(OC)cc(OC)c4Cl)ncn3)cc2)CC1 [INFIGRATINIB]
Result: 0.0

* * *

- System: U2OS
- MEASUREMENT_DESCRIPTION: Multiplex assay against U2OS
- Type: toxicity, cell-based
- MEASUREMENT_PARAMETERS: human, 48 h, 10 µM, compound concentration 10 uM, replicate 1
METRIC_NAME: Population Membrane Permeable-Phenotype (%)
Answers are plain numbers, in %.

Reference set, count: 5
MOLECULE	VALUE_UNIT	RECORDED_RESULT
CN1CCN(C(=O)C(C)(C)c2ccc(C(=O)Nc3cn4cc(-c5ccncc5)ccc4n3)cc2)CC1	%	56
O=C(Nc1ccc(-c2ccnc(Nc3ccc(N4CCOCC4)cc3)n2)cc1)[C@@H]1CCCN1	%	18
CCCn1c(=O)c2[nH]c(-c3cnn(Cc4cccc(C(F)(F)F)c4)c3)nc2n(CC)c1=O	%	50
O=C(Nc1ccc(Cl)cc1)Nc1cccc(-c2cccc(N3CCCC3)n2)c1	%	31
CCn1c(=O)c(-c2ccc(-c3cncs3)cc2Cl)cc2cnc(Nc3ccc(N4CCN(C)CC4)cc3)nc21	%	25

The following molecules each have a reported value; give each one's Population Membrane Permeable-Phenotype (%).
1. O=C(Cc1ccc(-c2ccc(OCCN3CCOCC3)cc2)cn1)NCc1ccccc1
2. CCCS(=O)(=O)c1nc(NC2CC2)cc(-c2ccc3c(ccn3C3CC(C)(C)NC(C)(C)C3)c2)n1
3. CCc1cccc(CC)c1NC(=O)c1nn(C)c2c1CCc1cnc(Nc3ccc(C(=O)NC4CCN(C)CC4)cc3OC(F)(F)F)nc1-2
4. O=C1N/C(=N/c2ccccc2F)S/C1=C\c1ccc(C(=O)O)cc1
5. COCC(=O)NC/C=C/c1ccc2ncnc(Nc3ccc(Oc4ccc(C)nc4)c(C)c3)c2c1
6. CN(C)C(=O)C(CCN1CCC(O)(c2ccc(Cl)cc2)CC1)(c1ccccc1)c1ccccc1.Cl [LOPERAMIDE HYDROCHLORIDE]

Result:
1. 15
2. 100
3. 57
4. 2
5. 57
6. 100

Please supply Population Membrane Permeable-Phenotype (%) for each of the following items, keeping them in order.
1. O=C(Nc1ccc(-n2nc(-c3cccnc3)cc2C(F)(F)F)cn1)c1ccc(-c2ccccc2)c(F)c1
2. C=C1/C(=C\C=C2/CCC[C@]3(C)[C@@H]([C@H](C)/C=C/[C@H](C)C(C)C)CC[C@@H]23)C[C@@H](O)C[C@@H]1O
3. Cl.Oc1ccc2c3c1O[C@H]1c4[nH]c5c(c4C[C@@]4(O)[C@@H](C2)N(CC2CC2)CC[C@]314)C[C@@]1(O)[C@H]2Cc3ccc(O)c4c3[C@@]1(CCN2CC1CC1)[C@H]5O4

Result:
1: 7; 2: 25; 3: 1

Ask: Recorded Population Membrane Permeable-Phenotype (%) of Cc1ccc(C(=O)Nc2cccc(C(F)(F)F)c2)cc1Nc1nc(-c2cccnc2)nc2c1cnn2C , please.
Result: 100
